Data provenance: patent US8461329B2

- MEASURED TARGET: CRTH2 (KB8 cells) (Homo sapiens, UniProt Q9Y5Y4)
- Construct: host or cells: KB8 cells (human CRTH2 expression cell)
- Sequence (Q9Y5Y4 1-395): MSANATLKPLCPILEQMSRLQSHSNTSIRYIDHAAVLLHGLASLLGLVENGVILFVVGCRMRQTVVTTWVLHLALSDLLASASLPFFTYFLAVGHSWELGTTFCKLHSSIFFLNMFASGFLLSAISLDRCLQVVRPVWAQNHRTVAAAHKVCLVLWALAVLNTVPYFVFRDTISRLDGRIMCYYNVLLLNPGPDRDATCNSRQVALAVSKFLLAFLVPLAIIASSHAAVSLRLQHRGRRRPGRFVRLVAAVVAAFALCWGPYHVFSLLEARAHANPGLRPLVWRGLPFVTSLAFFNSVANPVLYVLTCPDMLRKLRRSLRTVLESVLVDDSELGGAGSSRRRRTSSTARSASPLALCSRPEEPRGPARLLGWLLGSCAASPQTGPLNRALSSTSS
- TEST DESCRIPTION: CRTH2 antagonist test (PGD2-induced intracellular calcium ion concentration increase in KB8 cells)
- Type: cell-based
- CONDITIONS: PGD2 final concentration 100 nM, Fluo-4-AM fluorescence, read-out: antagonist activity (IC50 value, inhibition of calcium ion concentration increase)
Below, each entry is listed with its recorded IC50.

GIVEN SMILES | VALUE KIND | ENDPOINT VALUE
O=C(O)Cc1cnc(Cc2ccc(NC(=O)c3ccc(Cl)c(Cl)c3)cc2)c2ccccc12 | IC50 | < 50 nM
COc1ccc(CCNC(=O)c2ccc(Cc3ncc(CC(=O)O)c4ccccc34)cc2)cc1 | IC50 | 50 to 500 nM

As a next step, examine the molecule that follows.
**Q:** I am curious: what IC50 value has been reported for "O=C(O)Cc1cnc(Cc2ccc(C(=O)NCCc3ccc4ccccc4c3)cc2)c2ccccc12" ?
**A:** < 50 nM
